Tested on: OCI-AML2;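 note: after 48 h exposure read by CellTiter-Glo luminescence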
Test Method Notes: cell viability relative to vehicle control; higher = less cytotoxic
Run Conditions: 10 µM; SRSF2 genotype: wt/wt
Recorded cell viability by entry
The reply should contain only the number, in %.

// query Specify reported cell viability for the compound shown: C[C@]12CC[C@@H]3c4ccc(O)cc4CC[C@H]3[C@@H]1CCC2=O
// result 113

// query Supply measured cell viability of Cn1c(=O)c2c(ncn2CC(O)CO)n(C)c1=O (centres undefined) in your reply.
// result 102

// query In one line, give reported cell viability of the entry OC1COC(O)C(O)C1O (stereo not drawn) [L(+)-Arabinose] .
// result 113

// query // Input: Cc1cc(C(=O)O)n[nH]1 . Output its cell viability only.
// result 104

// query Assign cell viability to the following record: CC(=O)O[C@@H]1C[C@H](O)[C@@]23CO[C@@H](O)[C@]1(C)[C@@H]2C[C@@H](O)[C@]1(C)[C@@H]3C(=O)[C@H](OC(C)=O)[C@@]2(C)[C@H](c3ccoc3)C[C@H]3O[C@]321
// result 23.9

More entries:
// query Note down cell viability recorded for CCCCCCCC/C=C\CCCCCCCC(=O)OCC [Ethyl Oleate]
// result 93.7

// query Provide one value: measured cell viability of O=c1cc(-c2ccc(O)cc2)oc2c([C@@H]3O[C@H](CO)[C@@H](O)[C@H](O)[C@H]3O)c(O)cc(O)c12
// result 107

// query Supply measured cell viability of COc1ccc(S(=O)(=O)Nc2nc(-c3cccc([N+](=O)[O-])c3)cs2)cc1OC in your reply.
// result 108

// query Dear colleague, please send me the reported cell viability for CC(C)=CCOc1ccc(/C=C/C(=O)c2ccc(OCC=C(C)C)cc2OCC(=O)O)cc1 when you can.
// result 118

// query Provide cell viability value for the following compound: CC1(C)CC(=O)c2c(C(F)(F)F)nn(-c3ccc(C(N)=O)c(N[C@H]4CC[C@H](O)CC4)c3)c2C1
// result 21.4

// query Read off the recorded cell viability for OCCOCCN1CCN(C(c2ccccc2)c2ccc(Cl)cc2)CC1 (centres undefined) [Hydroxyzine pamoate]
// result 94.6

// query Read the entry C=CCc1cc(OC)c(OC)c(OC)c1 and write its reported cell viability.
// result 123

// query Complete the entry with cell viability for CNC(=O)c1ccccc1Sc1ccc2c(/C=C/c3ccccn3)n[nH]c2c1
// result 34

// query Report measured cell viability; entry is O=C(/C=C/c1ccc(O)c(O)c1)c1ccc(O)cc1O
// result 77.8

// query Look up cell viability of C[C@H]1COc2c(N3CCN(C)CC3)c(F)cc3c(=O)c(C(=O)O)cn1c23 [Levofloxacin (Levaquin)] and report it.
// result 88.3

// query Report measured cell viability; entry is O=CO [Formate]
// result 96

// query Using known records, supply cell viability for O=C(O)/C=C/c1ccc(O)cc1
// result 103

// query Indicate its recorded cell viability; the compound in question is Cc1ccc(S(=O)(=O)NC(=O)NN2CC3CCCC3C2)cc1 (centres undefined) [Gliclazide (Diamicron)]
// result 101

// query Assign cell viability to the following record: O=C(O)CSCC(=O)NC1CCSC1=O (centres undefined)
// result 96.9
